Record: compiled pIC50 on Protein kinase C alpha type (Homo sapiens) from multiple reports.
pIC50: −log10 of the molar value.
Measured attribute: pIC50

Consider the following illustrative entries.
>>> readout_value("O=C(NC1C2CCC(C2)C1OC(=O)c1cc(O)c(C(=O)c2c(O)cccc2C(=O)O)c(O)c1)c1ccc(O)cc1 (racemic)")
7.26
>>> readout_value("CN1CCN(c2nc(C3=C(c4c[nH]c5ccccc45)C(=O)NC3=O)c3cc(F)ccc3n2)CC1")
9.00

1 = CN1CCN(c2nc(C3=C(c4c[nH]c5ccccc45)C(=O)NC3=O)c3ccc(Cl)cc3n2)CC1
2 = COc1cccc(C2=C(c3cn(C)c4ccccc34)C(=O)NC2=O)c1
Problem: I'm curious whether 1 or 2 has the smaller pIC50 number. Which is it? Please reply using the label of the selected record.
Solution: 2
(2: 5.22, 1: 6.55)
